system: OVCAR-5; experiment: NCI tumour cell line growth inhibition, 48 h
Calls of active or inactive are those of the source. Rule as the data show it: active = GI50 up to about 1.1 µM and inactive = higher.
GI50 reference

| Compound | Tested target | GI50 |
| --- | --- | --- |
| CCN(CC)C(=O)N1CN(c2ccccc2)C2(CCN(CCCC3(c4ccc(F)cc4)OCCO3)CC2)C1=O | OVCAR-5 | > 10 µM (inactive) |
| NNc1nc2ccccc2s1 | OVCAR-5 | > 100 µM (inactive) |
| Cc1cc2c(cc1C)N1C(Cl)=C3CCCCC3=C(C#N)C1N2 (stereo not given) | OVCAR-5 | 21.1 µM (inactive) |
| O=C(O)C[S+]([O-])c1ccc2c3c(cccc13)C(=O)c1ccccc1-2 (stereo not given) | OVCAR-5 | > 100 µM (inactive) |
| O=C(CSCC(=O)N/N=C\c1ccc(-c2ccccc2)cc1)N/N=C\c1ccc(-c2ccccc2)cc1 | OVCAR-5 | 29.6 µM (inactive) |
| CCOC(=O)c1c(CN2CCOCC2)n(Cc2ccccc2)c2c1cc(O)c1nc(C)c(C)nc12 | OVCAR-5 | > 100 µM (inactive) |
| C=CCOC(=O)CC[C@H](NC(=O)[C@@H](CCC(F)(F)F)Cc1ccc(O)cc1)C(=O)OCC=C | OVCAR-5 | > 100 µM (inactive) |
| O=C1CCC2(c3ccc(F)cc3)Nc3ncccc3N12 (stereo not given) | OVCAR-5 | > 100 µM (inactive) |
| O=C1/C(=C/c2ccc(Cl)cc2)CCC1CCN1CCOCC1 (stereo not given) | OVCAR-5 | > 100 µM (inactive) |
| Cc1cc(=O)oc2c3c(ccc12)OC(c1ccc(Br)cc1)CC3=O (stereo not given) | OVCAR-5 | 16.3 µM (inactive) |

*Q* Entry under review: CCNc1cc2c(cc1O)CC[C@@H]1[C@@H]2CC[C@]2(C)[C@@H](O)CC[C@@H]12 . Reported GI50?
*A* 20.3 µM (inactive)

*Q* Follow-up entry: CC(=O)O[C@@H]1C[C@@]2(C)[C@@H]3CC=C4[C@@H](C[C@H](O)C(=O)C4(C)C)[C@]3(C)C(=O)C[C@]2(C)[C@H]1[C@@](C)(O)C(=O)/C=C/C(C)(C)OC(C)=O
*A* 12.8 µM (inactive)

----------
test system: NCI-H226; experiment: NCI tumour cell line growth inhibition, 48 h
Activity calls are given as the source filed them. Rule as the data show it: active = GI50 up to about 1.1 µM and inactive = higher.
Lab note: assign the record to one of 1 = active, -1 = inactive

| Compound | Class assignment |
| --- | --- |
| CC(C)=NNc1ncnc2[nH]cnc12 | -1 |
| Cn1nc(/C=C\C(=O)N2CC(CCl)c3c2cc(N)c2ccccc32)cc1/C=C/C(=O)N1CC(CCl)c2c1cc(N)c1ccccc21 (stereo not given) | 1 |
| COc1ccc(/C(Cl)=C(\C=O)c2ccc(Cl)c(Cl)c2)cc1OC | -1 |

*Q* # fetch the recorded call for Oc1ccc2c(c1)-c1c(c3ccccc3n1CCN1CCOCC1)CC2 here
*A* -1

*Q* Follow-up entry: CC(C)(C)OC(=O)CN1C(=O)CC1CC(=O)c1ccccc1 (stereo not given)
*A* -1

----------
system: HCT-15
GI50 reference
Write the answer as a number in µM, unit excluded.

Example entries begin here.
| Compound | Assay metric | Unit of measure | Obs value |
| --- | --- | --- | --- |
| O=C1Nc2ccccc2/C1=N/NC(=S)Nc1cccc(Cl)c1 | GI50 | µM | 7.64 |
| O=C1C(/C=C/c2ccc(Cl)cc2)=NNC2N1N=C1NC(=O)C3(NN12)c1ccccc1-c1ccccc13 (stereo not given) | GI50 | µM | 69.5 |

For the next question, use this compound.
*Q* Entry under review: CC(=O)Nc1ccc(/C=C/[N+](=O)[O-])cc1 . Reported GI50?
*A* 2.33
